System: HOP-92 NSCLC
protocol description: NCI tumour cell line growth inhibition, 48 h
endpoint name: TGI

> print(dat)
                                    compound  measurement.target  endpoint.name  recorded.value
 1  CC(=O)NC1C(OCc2ccccc2)OC(CO)C(O)C1OCC(=O)NC(C)C(=O)NC(CCC(=O)Nc1ccc2c(c1)CN1C(=O)c3ccccc3C1=N2)C(N)=O (stereo not drawn)        HOP-92 NSCLC            TGI        > 100 µM
 2  CCCCCNC(=O)C1C(=O)N(CCCCC)C(=O)/C1=N\N (stereo not drawn)        HOP-92 NSCLC            TGI         95.4 µM
 3       CC(C)c1cccc(C(C)C)c1NC(=S)Nc1ccccc1        HOP-92 NSCLC            TGI        > 100 µM
 4                     c1ccc2c(c1)SCCCSCCCS2        HOP-92 NSCLC            TGI        > 100 µM
 5  O=C(c1no[n+]([O-])c1C(=O)c1csc2ccccc12)c1csc2ccccc12        HOP-92 NSCLC            TGI         5.01 µM
 6          CSc1nc2ccccc2c(=O)n1-c1cccc(C)c1        HOP-92 NSCLC            TGI        > 100 µM
 7   O=C(CN1c2ccccc2Sc2ccccc21)n1cnc2ccccc21        HOP-92 NSCLC            TGI         93.9 µM
 8  NC(=O)OCc1c(O)c2c(c(O)c1COC(N)=O)C(=O)C=CC2=O        HOP-92 NSCLC            TGI        > 100 µM
 9  COC1(CCO)CC=CCC1(CCO)OC (stereo not drawn)        HOP-92 NSCLC            TGI        > 100 µM
10        N/C(=N\N=C=C1C(=O)Nc2ccc(F)cc21)NO        HOP-92 NSCLC            TGI        > 100 µM
11  O=C1c2cccnc2-c2nc(-c3ccccc3)cc3c2c1nc1ccccc13        HOP-92 NSCLC            TGI         80.4 µM
12        Fc1cccc(C=NC23CC4CC(CC(C4)C2)C3)c1        HOP-92 NSCLC            TGI        > 100 µM
13  O=C(Nc1ccc(Cl)cc1)C(=O)C1=C(O)c2ccccc2OC1        HOP-92 NSCLC            TGI        > 100 µM
14  Cn1cc(-c2nonc2-c2cn(C)c3ccc(Br)cc23)c2ccccc21        HOP-92 NSCLC            TGI        > 100 µM
15  O=C(O)C1CCCCN1CCc1c[nH]c2ccccc12 (stereo not drawn)        HOP-92 NSCLC            TGI        > 100 µM
16  O=C1NCC2=C1CCC1c3ccccc3CCN21 (stereo not drawn)        HOP-92 NSCLC            TGI        > 100 µM
17  COC1C2c3ccccc3C(C#N)(Cc3ccc4c(c32)OCO4)N1C(=O)c1ccccc1 (stereo not drawn)        HOP-92 NSCLC            TGI        > 100 µM
18  CC1(c2nc3ccccc3[nH]2)CCC(CO)C(C)(C)O1 (stereo not drawn)        HOP-92 NSCLC            TGI        > 100 µM
19  COc1ccc(-n2c(-c3ccccc3)cc(-c3cccs3)c2-c2cccs2)cc1        HOP-92 NSCLC            TGI        > 100 µM
20  C[C@@H](Oc1cc(-n2cnc3ccc(OCC4CCN(C)CC4)cc32)sc1C(N)=O)c1ccccc1C(F)(F)F        HOP-92 NSCLC            TGI         3.43 µM
21          O=C1/C(=C/c2ccccc2Cl)COc2ccccc21        HOP-92 NSCLC            TGI         29.4 µM
22  Cc1cc(C)c2c(c1C)CN1CN2Cc2c(C)c(C)cc(C)c21        HOP-92 NSCLC            TGI        > 100 µM
23           COC(=O)/C=C1/OC(c2ccccc2)=CC1=O        HOP-92 NSCLC            TGI         52.8 µM
